System: α-isomaltosylglucosaccharide-forming enzyme
Assay: Transfer-acceptor specificity, Enzyme of Strain C9
Type: biochemical, Bacillus globisporus C9
Set-up: key: −: no saccharide-transferred product was detected through transfer reaction to acceptor; ∀: a saccharide-transferred product was detected in an amount less than one percent through transfer reaction to acceptor; +: a saccharide-transferred product was detected in an amount over one percent but less than ten percent through transfer reaction to acceptor; ++: a saccharide-transferred product was detected in an amount over ten percent through transfer reaction to acceptor
Conditions: acceptor 1.6%, PINE-DEX #100 donor 4%, one unit/g donor, 30° C., pH 6.0, 24 hours
experimental readout: Product of transferring reaction, Enzyme of Strain C9

{"smiles text": "O=C[C@@H](O)[C@@H](O)[C@H](O)[C@H](O)CO", "assayed system": "α-isomaltosylglucosaccharide-forming enzyme", "measurement": "−"}

====

System: α-isomaltosylglucosaccharide-forming enzyme
Assay: Transfer-acceptor specificity, Enzyme of Strain C9
Assay type: biochemical, Bacillus globisporus C9
Parameters: key: −: no saccharide-transferred product was detected through transfer reaction to acceptor; ∀: a saccharide-transferred product was detected in an amount less than one percent through transfer reaction to acceptor; +: a saccharide-transferred product was detected in an amount over one percent but less than ten percent through transfer reaction to acceptor; ++: a saccharide-transferred product was detected in an amount over ten percent through transfer reaction to acceptor
Settings: acceptor 1.6%, PINE-DEX #100 donor 4%, one unit/g donor, 30° C., pH 6.0, 24 hours
experimental readout: Product of transferring reaction, Enzyme of Strain C9

{"smiles text": "OC[C@H]1O[C@@H]2O[C@H]3[C@H](O)[C@@H](O)[C@@H](O[C@H]4[C@H](O)[C@@H](O)[C@@H](O[C@H]5[C@H](O)[C@@H](O)[C@@H](O[C@H]6[C@H](O)[C@@H](O)[C@@H](O[C@H]7[C@H](O)[C@@H](O)[C@@H](O[C@H]8[C@H](O)[C@@H](O)[C@@H](O[C@H]9[C@H](O)[C@@H](O)[C@@H](O[C@H]1[C@H](O)[C@H]2O)O[C@@H]9CO)O[C@@H]8CO)O[C@@H]7CO)O[C@@H]6CO)O[C@@H]5CO)O[C@@H]4CO)O[C@@H]3CO", "measurement": "−"}
{"smiles text": "C[C@H](O)[C@H](O)[C@@H](O)[C@@H](O)C=O", "measurement": "−"}
{"smiles text": "OC[C@H]1O[C@@H]2O[C@H]3[C@H](O)[C@@H](O)[C@@H](O[C@H]4[C@H](O)[C@@H](O)[C@@H](O[C@H]5[C@H](O)[C@@H](O)[C@@H](O[C@H]6[C@H](O)[C@@H](O)[C@@H](O[C@H]7[C@H](O)[C@@H](O)[C@@H](O[C@H]1[C@H](O)[C@H]2O)O[C@@H]7CO)O[C@@H]6CO)O[C@@H]5CO)O[C@@H]4CO)O[C@@H]3CO", "measurement": "−"}

====

Test system: α-isomaltosylglucosaccharide-forming enzyme
Assay: Transfer-acceptor specificity, Enzyme of Strain C11
Format: biochemical, Bacillus globisporus C11
Set-up: key: −: no saccharide-transferred product was detected through transfer reaction to acceptor; ∀: a saccharide-transferred product was detected in an amount less than one percent through transfer reaction to acceptor; +: a saccharide-transferred product was detected in an amount over one percent but less than ten percent through transfer reaction to acceptor; ++: a saccharide-transferred product was detected in an amount over ten percent through transfer reaction to acceptor
Settings: acceptor 1.6%, PINE-DEX #100 donor 4%, one unit/g donor, 30° C., pH 6.0, 24 hours
experimental readout: Product of transferring reaction, Enzyme of Strain C11

{"smiles text": "OC[C@H]1O[C@@H]2O[C@H]3[C@H](O)[C@@H](O)[C@@H](O[C@H]4[C@H](O)[C@@H](O)[C@@H](O[C@H]5[C@H](O)[C@@H](O)[C@@H](O[C@H]6[C@H](O)[C@@H](O)[C@@H](O[C@H]7[C@H](O)[C@@H](O)[C@@H](O[C@H]8[C@H](O)[C@@H](O)[C@@H](O[C@H]1[C@H](O)[C@H]2O)O[C@@H]8CO)O[C@@H]7CO)O[C@@H]6CO)O[C@@H]5CO)O[C@@H]4CO)O[C@@H]3CO", "measurement": "−"}
{"smiles text": "C[C@H](O)[C@H](O)[C@@H](O)[C@@H](O)C=O", "measurement": "−"}
{"smiles text": "OC[C@@H](O)[C@@H](O)[C@H](O)[C@@H](O)CO", "measurement": "−"}
